Data origin, for the record: PubChem BioAssay (NCI)

Exercise: for every item that follows, state its recorded growth inhibition.
Assay: NCI Yeast Anticancer Drug Screen. Data for the sgs1 mgt1 strain (AID 161);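 further: 0% = growth of cultures given vehicle only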
Conditions: S. cerevisiae sgs1 mgt1 strain, at 50.0 µM, stronger effect = higher value
This is part of a sample that, as a whole, favours compounds with a hit. Of some 79,000 tested, about 15% had one in any assay.
One number for each entry, in %.

MOLECULE: CC(=O)Nc1ccc(C(=O)NN2C(=O)CSC2c2ccc(O)cc2)cc1 (stereo not given)
growth inhibition / %: -44.5
//
MOLECULE: O=c1[nH]c(C(F)(F)F)c(CCc2ccccc2)c(=O)[nH]1
growth inhibition / %: 36.9
//
MOLECULE: COc1ccccc1NC(=O)C1=C(C)NC(C)=C(C(=O)Nc2ccccc2OC)C1c1ccccc1OC
growth inhibition / %: -26.8
//
MOLECULE: N#CNC(=Nc1ccccc1)[N](C#N)[Sn]([c]1ccccc1)([c]1ccccc1)[c]1ccccc1
growth inhibition / %: 99.2
//
MOLECULE: CN(C)S(=O)(=O)c1ccc(CCc2ccc(S(=O)(=O)N(C)C)cc2)cc1
growth inhibition / %: -12.7
//
MOLECULE: O=[N+]([O-])c1ccc(Sc2c3ccccc3nc3cc(Cl)ccc23)cc1
growth inhibition / %: -18.5
//
MOLECULE: CCCCSCCOC(=O)C1C2CCC(O2)C1C(=O)O (stereo not given)
growth inhibition / %: 0.1
//
MOLECULE: CC(C)C(C(=O)O)N1C(=O)c2ccccc2C1=O (stereo not given)
growth inhibition / %: -12.2

Dear reader, for each entry below, please note its growth inhibition.
1. CCC(=O)OCC(OC(=O)CC)c1ccccc1 (stereo not given)
2. O=NN(Cc1ccccc1)c1ccc(OCc2ccccc2)c(NC(=O)CCC2OCCO2)c1

1: -16.1; 2: 30.4

###

Assay: NCI Yeast Anticancer Drug Screen. Data for the mec2-1 strain (AID 157)
Conditions: S. cerevisiae mec2-1 strain, at 50.0 µM, stronger effect = higher value
The panel holds about 79,000 compounds, 15% with a hit somewhere; the sample as a whole holds those more often.
Exercise: for every item that follows, state its recorded growth inhibition.
One number for each entry, in %.

COMPOUND: CC1CCC(C)C(O)C1 (stereo unspecified)
MEASURED METRIC: growth inhibition
NUMERIC VALUE: -22.3

Dear reader, for each entry below, please note its growth inhibition.
1. OCCSCCCCCCSCCO
2. Cc1ccnn1CCc1ccc(Cl)cc1Cl
3. O=C(CCl)Oc1cccc2cccnc12
4. CCCC(CCO)(CCO)c1ccccc1

[1.7, 15.3, 9, -30.4]

Dear reader, for each entry below, please note its growth inhibition.
1. Cc1ccc(C2=Nn3c(nc4sc(C)c(C)c4c3=O)SC2)cc1
2. Nc1ccc2c(c1)C(=O)c1cc(C(=O)O)ccc1-2
3. CCOC(=O)NC(NC(=O)OCC)c1ccc2c(c1)OCO2
4. Nc1ncnc(N)c1NC(=O)c1ccc(CCc2ccccc2)c(Cl)c1
5. SCc1ccc(CS)s1
6. Cc1ccc(NC(=O)NCc2ccncc2)cc1NC(=O)NCc1ccncc1
7. COc1ccc(OC)c2c(Cl)ccnc12

1: -3.25; 2: -2.55; 3: 17.4; 4: 37.1; 5: -1.75; 6: 15; 7: 15.1

Dear reader, for each entry below, please note its growth inhibition.
1. CC1(C#N)C(C#N)(C#N)C1(C#N)C#N
2. O=C1c2ccccc2C(=O)c2c1ccc1c2N=C(c2ccc(F)cc2)CC(c2ccc(Cl)c(Cl)c2)N1 (stereo unspecified)
3. CN/N=C(\C(=O)Nc1ccc(C)c(C)c1)C(C(=O)OC)c1nc2ccc([N+](=O)[O-])cc2[nH]c1=O (stereo unspecified)
4. COc1ccc(C(=O)Oc2ccc(C)c(CC(Cl)(Cl)Cl)c2)cc1

1. -3.35
2. 20.1
3. 2.7
4. -9.5

Dear reader, for each entry below, please note its growth inhibition.
1. CC1(C)COC2(CC(C)(C)OC2(C)C)OC1
2. N#C/C=C\c1ccc(Cl)cc1

1. 0.8
2. -4.5

Dear reader, for each entry below, please note its growth inhibition.
1. CN(/N=C\c1ccc2ccccc2c1)C1=NCCCCN1
2. O=C1C(Cl)C(c2ccccc2O)N1n1cnc2ccccc2c1=O (stereo unspecified)
3. COc1ccc2nc3c([N+](=O)[O-])ccc(NCCCN(C)C)c3c(NCCCN(C)C)c2c1
4. CN(C)CC1CN(C)CC(CN(C)C)C1(O)C(C(=O)N(C)C)c1ccccc1 (stereo unspecified)
5. Cc1[nH]c(=O)c(C#N)c(C)c1[N+](=O)[O-]

1: -5.45; 2: 8.9; 3: 9.3; 4: 50; 5: 20.3

Dear reader, for each entry below, please note its growth inhibition.
1. CCCCCCCCCCS(=O)(=O)CC(=O)O
2. CC12CC3CC(C)(C1)CC(SCCN=C(N)CCl)(C3)C2

1. -2.35
2. 99

Query (compound): `Nc1ccccc1OCC(=O)Nc1c(N)ncnc1N` ; field requested: growth inhibition
-6.35

###

Experiment: NCI Yeast Anticancer Drug Screen. Data for the cln2 rad14 strain (AID 165);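 further: 0% = growth equal to vehicle treated cultures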
Details: S. cerevisiae cln2 rad14 strain, at 50.0 µM, stronger effect = higher value
Compounds without any hit were thinned out: in the full panel of roughly 79,000, 15% have a hit.
MEASURED METRIC: growth inhibition (%)
Give bare numbers, in %.

COMPOUND: C1OC[C@@H]([C@H]2COCO2)O1
MEASURED METRIC: growth inhibition
UNITS: %
NUMERIC VALUE: -0.8

COMPOUND: Nc1ccc2ccccc2c1N=Nc1ccc(/C=C/c2ccc(N=Nc3c(N)ccc4ccccc34)cc2S(=O)(=O)O)c(S(=O)(=O)O)c1
MEASURED METRIC: growth inhibition
UNITS: %
NUMERIC VALUE: 7.1

COMPOUND: O=P(CCC(O)c1ccccc1)(c1ccccc1)c1ccccc1 (centres undefined)
MEASURED METRIC: growth inhibition
UNITS: %
NUMERIC VALUE: 0.5

COMPOUND: COC(=O)c1cc2ccccc2[nH]1
MEASURED METRIC: growth inhibition
UNITS: %
NUMERIC VALUE: -15.3

COMPOUND: NCc1ccc(Cl)cc1
MEASURED METRIC: growth inhibition
UNITS: %
NUMERIC VALUE: 25.8

COMPOUND: CC(=O)Oc1ccc(I)cc1C(=O)O
MEASURED METRIC: growth inhibition
UNITS: %
NUMERIC VALUE: -12.7

Dear reader, for each entry below, please note its growth inhibition.
1. O=C(c1ccc(Cl)cc1)c1nnc(Cl)s1
2. Cc1cnc2c(C)ccc([N+](=O)[O-])c2c1NCCCN(C)C
3. CN=C1N[N+]2=CCCCC2S1 (centres undefined)
4. CC(=O)Nc1cccc(N=NN(C)C)c1
5. Cc1ccc(C(C)C)cc1NC=O
6. CCC(CC)=NNc1ccc([N+](=O)[O-])cc1[N+](=O)[O-]
7. CN(C)c1ccc(/C=C(/C(=O)O)c2csc(-c3nc(/C(=C\c4ccc(N(C)C)cc4)C(=O)O)cs3)n2)cc1
8. NC(=S)N/N=C/c1cc(=O)c2cc(Cl)ccc2o1

1. -10.8
2. 2.45
3. 0.75
4. 20.5
5. 0.05
6. -51.1
7. -19.8
8. 45.8

###

Test: NCI Yeast Anticancer Drug Screen. Data for the bub3 strain (AID 167)
Conditions: S. cerevisiae bub3 mutant strain, at 50.0 µM
Compounds without any hit were thinned out: in the full panel of roughly 79,000, 15% have a hit. Active and inactive are the calls of the source. Cut-off read from the data, not from the text of the source: active = growth inhibition above about 70%; inactive = the rest.
Please state which outcome applies, choosing from Yes = active, No = inactive

Test call, this compound: `CC(C)(C)OC(=O)N(CCCN)CCCCN(CCCN)C(=O)OC(C)(C)C`
No

###

Assay: NCI Yeast Anticancer Drug Screen. Data for the sgs1 mgt1 strain (AID 161);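 further: 0% = growth of cultures given vehicle only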
Details: S. cerevisiae sgs1 mgt1 strain, at 50.0 µM, stronger effect = higher value
About 79,000 compounds went through this panel and 15% of them were active in at least one assay; those are over-represented in the sample as a whole.
Exercise: for every item that follows, state its recorded growth inhibition.
Give bare numbers, in %.

Take a look at these entries with their results.
COMPOUND: CC1=C(C)C(=O)c2c(OC(=O)c3ccccc3)ccc(OC(=O)c3ccccc3)c2C1=O
NUMERIC VALUE: 19.3
//
COMPOUND: Cc1cccc(C(C)C)c1NC(=O)C(=O)C(C#N)c1ccc(CC#N)cc1 (stereo unspecified)
NUMERIC VALUE: 17.9

Dear reader, for each entry below, please note its growth inhibition.
1. COc1ccc(C2=Nc3c(nc(SC)[nH]c3=O)NC(c3ccccc3)C2)cc1 (stereo unspecified)
2. O=C1N=NC(=O)N1c1ccccc1

1: 19.3; 2: 1

Dear reader, for each entry below, please note its growth inhibition.
1. Cc1ccc(-c2cn3c(nc4ccccc43)c(-c3ccccc3)n2)cc1
2. Nc1cnc2c(c1)c(=O)nc1n2CCS1

[-41.6, 6.6]
